Every entry's value here was drawn from PubChem BioAssay AID1159580.

Let's look at some compounds and their measured normalized growth.
- Assay Name: chemical genetic growth profiling, strain panel (AID 1159580);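 also: tested at 20 µM; growth read once vehicle control cultures reached saturation at 30 °C; 1 = growth at the plate median or of vehicle wells; lower values mean less growth of the strain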
- Stated Conditions: S. cerevisiae deletion strains, growth OD, locus YJL168C, strain set2, active compounds read low
In all, about 5,500 compounds went through this assay and about 2,000 (36%) were called active. About 18% were inconclusive and are not listed. This is one part of the list. Where a SMILES comes first, the peptide text is derived from it. [ ]: non-standard residue; d: D form. Orn = NCCC[CH](N)C(=O)O
Lab note: jot down the number only; don't add units.

Worked cases, answers included:
- Compound: "CCNc1nc(Cl)nc(NCC)n1"
  normalized growth: 1.01
- Compound: "CCOC([O-])=Nc1c[n+](N2CCOCC2)no1"
  normalized growth: 1
- Compound: "O=C1c2ccccc2C(=O)C1c1ccccc1"
  normalized growth: 1.01

Q: I have this compound here, Cc1ccc(N(CC2=NCCN2)c2cccc(O)c2)cc1 , and I need its recorded normalized growth.
Result: 1.01

Q: I have this compound here, NCCc1c[nH]c2ccccc12 , and I need its recorded normalized growth.
Result: 1

Q: I have this compound here, COc1ccc2c(=O)ccoc2c1 , and I need its recorded normalized growth.
Result: 1.01

Q: I have this compound here, CO[C@@]1(NC(=O)Cc2cccs2)C(=O)N2C(C(=O)O)=C(COC(N)=O)CS[C@@H]21 , and I need its recorded normalized growth.
Result: 0.992

Q: I have this compound here, COC1(C)CCC2OC2(C)CCC2C1CC2(C)C (centres undefined) , and I need its recorded normalized growth.
Result: 0.988

Q: I have this compound here, Cc1cc(C(C)(C)C)cc(C)c1CC1=NCCN1 , and I need its recorded normalized growth.
Result: 0.998

Q: I have this compound here, CC(=O)OCC1=C(C(=O)O)N2C(=O)[C@@H](NC(=O)CCCC(N)C(=O)O)C2SC1 (some centres undefined) , and I need its recorded normalized growth.
Result: 0.996

Q: I have this compound here, CN[C@@H]1[C@@H](O[C@H]2O[C@H](CO)[C@@H](N)[C@H](O)[C@H]2O)O[C@H]2C[C@@H](N)[C@H](O[C@H]3[C@H](O)[C@@H](O)[C@H](N)C[C@@H]3N)O[C@@H]2[C@@H]1O , and I need its recorded normalized growth.
Result: 1

Q: I have this compound here, COc1ccc2c(c1)[C@]13CCCC[C@H]1[C@H](C2)N(C)CC3 , and I need its recorded normalized growth.
Result: 0.99

Q: I have this compound here, COc1c2occc2c(OC)c2c(=O)cc(C)oc12 , and I need its recorded normalized growth.
Result: 1.01

Q: I have this compound here, CC(C)CC1NC(=O)C(CCCN)NC(=O)C(C(C)C)NC(=O)C2CCCN2C(=O)C(Cc2ccccc2)NC(=O)C(CC(C)C)NC(=O)C(CCCN)NC(=O)C(C(C)C)NC(=O)C2CCCN2C(=O)C(Cc2ccccc2)NC1=O (centres undefined) (cyclo(FPV[Orn]LFPV[Orn]L); configuration not given here) , and I need its recorded normalized growth.
Result: 1

Q: I have this compound here, O=C(OC[C@H]1O[C@H](OC(=O)c2cc(O)c(O)c(OC(=O)c3cc(O)c(O)c(O)c3)c2)[C@H](OC(=O)c2cc(O)c(O)c(OC(=O)c3cc(O)c(O)c(O)c3)c2)[C@@H](OC(=O)c2cc(O)c(O)c(OC(=O)c3cc(O)c(O)c(O)c3)c2)[C@@H]1OC(=O)c1cc(O)c(O)c(OC(=O)c2cc(O)c(O)c(O)c2)c1)c1cc(O)c(O)c(OC(=O)c2cc(O)c(O)c(O)c2)c1 , and I need its recorded normalized growth.
Result: 0.087

Q: I have this compound here, Cc1cc(C(C)(C)C)c(O)c(C)c1CC1=NCCN1 , and I need its recorded normalized growth.
Result: 1.01

Q: I have this compound here, CC1=NN(c2ccccc2)C(=O)C1 , and I need its recorded normalized growth.
Result: 0.993

Q: I have this compound here, CC(=O)O[C@H]1CC[C@]2(C)C3CC[C@@]4(C)C(CC5O[C@@]6(CCC(C)CO6)[C@@H](C)C54)C3CC[C@H]2C1 (some centres undefined) , and I need its recorded normalized growth.
Result: 0.979

Q: I have this compound here, CC1(C)C(=O)[C@@H]2O[C@@H]2[C@@]2(C)C1CC(=O)[C@]1(C)C2CC[C@@]2(C)[C@H](c3ccoc3)OC(=O)[C@H]3O[C@]321 (some centres undefined) , and I need its recorded normalized growth.
Result: 0.989

Q: I have this compound here, O=C(O)[C@H](O)[C@@](O)(Cc1ccc(O)cc1)C(=O)O , and I need its recorded normalized growth.
Result: 1
